Tested on: TTR
test-summary: TTR editing in primary cyno hepatocytes electroporated with Spy Cas9 protein and dgRNAs (Tables 10, 11)
Format: cell-based, cynomolgus monkey
experimental-conditions: primary cyno hepatocytes electroporated with Spy Cas9 protein (RNP) and cyno specific dgRNAs
quantity: Avg % Edit (%)
// return numeric value only (unit: %, not printed)

>>> endpoint_result("CCUCCUCUGCCUCGCUGGAC (tested as dual guide RNA, chemistry not given here) [CR005368]")
27.60
>>> endpoint_result("AAAAGGCUGCUGAUGAGACC (tested as dual guide RNA, chemistry not given here) [CR005372]")
17.98

INPUT: Look up and report measured Avg % Edit for this entry: CCAGUCCAGCGAGGCAGAGG (tested as dual guide RNA, chemistry not given here) [CR005367]
OUTPUT: 50.79

###

Tested on: TTR
test-summary: TTR editing in primary human hepatocytes transfected with Spy Cas9 mRNA and dgRNAs (Table 9)
Format: cell-based
experimental-conditions: dgRNA co-transfected with Spy Cas9 mRNA (SEQ ID NO:2)
quantity: Avg % Edit
Put your answer as a value accompanied by its unit after it.

Sample answers from the record:
>>> endpoint_result("AGCCGUGGUGGAAUAGGAGU (tested as dual guide RNA, chemistry not given here) [CR005299]")
"9.43%"
>>> endpoint_result("GGAGUAGGGGCUCAGCAGGG (tested as dual guide RNA, chemistry not given here) [CR003382]")
"0.97%"
>>> endpoint_result("AGACACCAAAUCUUACUGGA (tested as dual guide RNA, chemistry not given here) [CR003367]")
"37.33%"

Could you now look at the following sequence, please?
INPUT: Fill in reported Avg % Edit for this entry: UGGACUGGUAUUUGUGUCUG (tested as dual guide RNA, chemistry not given here) [CR003340]
OUTPUT: 24.97%
